Population Mitochondria Different-Phenotype (%) listing for selected compounds.
System: U2OS
test.protocol: Multiplex assay against U2OS
Format: toxicity, cell-based
experimental.context: human, 48 h, 10 µM, compound concentration 10 uM, replicate 1
measurement.name: Population Mitochondria Different-Phenotype (%)

[
  {
    "compound": "COc1ccc2c(c1)C(C(=O)N(Cc1ccc(N(C)C)cc1)c1ccc(C(C)C)cc1)CCC2.Cl (stereo unspecified)",
    "unit.descriptor": "%",
    "value.reported": 26
  },
  {
    "compound": "CN1CCN(c2nc3cc(C(F)(F)F)ccc3n3cccc23)CC1.O=C(O)/C=C\\C(=O)O.O=C(O)/C=C\\C(=O)O",
    "unit.descriptor": "%",
    "value.reported": 17
  },
  {
    "compound": "CN(C)c1ccnc2sc3c(=O)n(N4CCCCCC4)cnc3c12",
    "unit.descriptor": "%",
    "value.reported": 11
  },
  {
    "compound": "CCCn1c(=O)c2[nH]c(C3CCCC3)nc2n(CCC)c1=O",
    "unit.descriptor": "%",
    "value.reported": 1
  },
  {
    "compound": "C[C@@H]1C[C@H]2[C@@H]3CCC4=CC(=O)C=C[C@]4(C)[C@@]3(F)[C@@H](O)C[C@]2(C)[C@@]1(O)C(=O)CO",
    "unit.descriptor": "%",
    "value.reported": 1
  },
  {
    "compound": "CC[C@H]1OC(=O)[C@H](C)[C@@H](O[C@H]2C[C@@](C)(OC)[C@@H](O)[C@H](C)O2)[C@H](C)[C@@H](O[C@@H]2O[C@H](C)C[C@H](N(C)C)[C@H]2O)[C@@]2(C)CC(C)=C(O2)[C@H](C)[C@@H](O)[C@]1(C)O",
    "unit.descriptor": "%",
    "value.reported": 55
  },
  {
    "compound": "O=C(O)Cc1ccccc1Nc1c(Cl)cccc1Cl",
    "unit.descriptor": "%",
    "value.reported": 1
  },
  {
    "compound": "CCOc1c2c(c(OCC)c3ncccc13)CN(c1ccc(CS(=O)(=O)NC(=O)Cc3ccccc3OC)cc1C)C2=O",
    "unit.descriptor": "%",
    "value.reported": 1
  },
  {
    "compound": "COc1c(C)cc(NC(=O)c2nn(Cc3ccc(F)cc3)c3c2CN(C(=O)c2ccc[nH]2)C[C@]3(C)C(N)=O)cc1C",
    "unit.descriptor": "%",
    "value.reported": 85
  },
  {
    "compound": "N#Cc1c(N)nc(SCc2csc(-c3ccc(Cl)cc3)n2)c(C#N)c1-c1ccc(OCCO)cc1",
    "unit.descriptor": "%",
    "value.reported": 31
  },
  {
    "compound": "Cc1ccc(F)cc1C(=O)Nc1ccc(C(=O)N2Cc3cccn3Cc3ccccc32)c(Cl)c1",
    "unit.descriptor": "%",
    "value.reported": 40
  },
  {
    "compound": "N[C@@]1(C(=O)O)CO[C@H]2[C@H](C(=O)O)[C@H]21",
    "unit.descriptor": "%",
    "value.reported": 2
  },
  {
    "compound": "C[C@H](NC(=O)c1c(C(F)F)nn(C)c1Oc1cccc(C(F)(F)F)c1)c1ccc(C(=O)O)cc1",
    "unit.descriptor": "%",
    "value.reported": 3
  },
  {
    "compound": "CC(C)(C)c1ccc(S(=O)(=O)Nc2ccc(Cl)cc2C(=O)c2cc[n+]([O-])cc2)cc1",
    "unit.descriptor": "%",
    "value.reported": 1
  },
  {
    "compound": "Cc1ccc(C(C)(O)c2nc3ccccc3s2)c(C)c1 (stereo unspecified)",
    "unit.descriptor": "%",
    "value.reported": 1
  },
  {
    "compound": "CSc1ccccc1N1CCN(CCCCCC(=O)NC2CCCc3ccccc32)CC1.Cl (stereo unspecified)",
    "unit.descriptor": "%",
    "value.reported": 33
  }
]

----------
System: Fibroblast
test.protocol: Multiplex assay against human fibroblast
Format: toxicity, cell-based
experimental.context: 12 h, 1 µM, compound concentration 1 uM, replicate 1
Please assign N whenever Population Hoechst High Intensity Objects (%) is at or above 2%, and Y whenever it is below.

[
  {
    "molecule": "C[C@@H]1C[C@H]2[C@@H]3CCC4=CC(=O)C=C[C@]4(C)[C@@]3(F)[C@@H](O)C[C@]2(C)[C@@]1(O)C(=O)CO [DEXAMETHASONE]",
    "cat": "N"
  },
  {
    "molecule": "CN(C)CCCc1cc(C(=O)Nc2ccc(-c3ccncc3)cc2)ccc1O.Cl.Cl",
    "cat": "N"
  },
  {
    "molecule": "CN1CCN(c2nc3cc(C(F)(F)F)ccc3n3cccc23)CC1.O=C(O)/C=C\\C(=O)O.O=C(O)/C=C\\C(=O)O",
    "cat": "Y"
  },
  {
    "molecule": "CN1CCN2c3ncccc3Cc3ccccc3C2C1 (stereo not drawn) [MIRTAZAPINE]",
    "cat": "N"
  },
  {
    "molecule": "O=C(O)Cc1ccccc1Nc1c(Cl)cccc1Cl [DICLOFENAC]",
    "cat": "Y"
  },
  {
    "molecule": "Cc1ccccc1C(=O)Nc1ccc(C(=O)N2CCCC(N(C)C)c3ccccc32)cc1.Cl (stereo not drawn)",
    "cat": "Y"
  },
  {
    "molecule": "O=S(=O)(c1ccccc1)c1cnc2c(N3CCNCC3)cccc2c1 [INTEPIRDINE]",
    "cat": "N"
  },
  {
    "molecule": "Oc1c(CN2CCN(c3ccccn3)CC2)cc(Cl)c2cccnc12",
    "cat": "N"
  },
  {
    "molecule": "O=C(NCCO)c1cccc(-c2cc(Nc3ccc(OC(F)(F)F)cc3)ncn2)c1",
    "cat": "N"
  },
  {
    "molecule": "CCCC(CCC)C(=O)O [VALPROIC ACID]",
    "cat": "N"
  },
  {
    "molecule": "COc1ccc2c(c1)C(C(=O)N(Cc1ccc(N(C)C)cc1)c1ccc(C(C)C)cc1)CCC2.Cl (stereo not drawn)",
    "cat": "Y"
  },
  {
    "molecule": "Cc1ccc(/C(=C\\CN2CCCC2)c2ccccn2)cc1 [TRIPROLIDINE]",
    "cat": "N"
  },
  {
    "molecule": "CNC[C@H](O)c1ccc(O)c(O)c1 [EPINEPHRINE]",
    "cat": "Y"
  },
  {
    "molecule": "c1cc(OCCCN2CCCCC2)ccc1CN1CCCCC1 [JNJ-5207852]",
    "cat": "Y"
  },
  {
    "molecule": "CN(C)c1ccnc2sc3c(=O)n(N4CCCCCC4)cnc3c12",
    "cat": "N"
  }
]

----------
Test system: U2OS
test.protocol: Multiplex assay against U2OS
Assay type: toxicity, cell-based
experimental.context: human, 12 h, 10 µM, compound concentration 10 uM, replicate 1
Population Normal (%) listing for selected molecules.

[
  {
    "molecule": "CCOc1c2c(c(OCC)c3ncccc13)CN(c1ccc(CS(=O)(=O)NC(=O)Cc3ccccc3OC)cc1C)C2=O",
    "Population Normal (%)": "97%"
  },
  {
    "molecule": "O=C(O)c1cc2ccccc2c(Cc2c(O)c(C(=O)O)cc3ccccc23)c1O",
    "Population Normal (%)": "97%"
  },
  {
    "molecule": "CC1(COc2ccc3c(c2)ncn3-c2ccc3cccc(N4CCC(N)CC4)c3n2)COC1",
    "Population Normal (%)": "78%"
  },
  {
    "molecule": "COc1ccc2c(c1)C(C(=O)N(Cc1ccc(N(C)C)cc1)c1ccc(C(C)C)cc1)CCC2.Cl (centres undefined)",
    "Population Normal (%)": "95%"
  }
]

----------
System: U2OS
test.protocol: Multiplex assay against U2OS
Assay type: toxicity, cell-based
experimental.context: human, 24 h, 1 µM, compound concentration 1 uM, replicate 2
Please assign not fulfilled whenever Population Membrane Permeable-Phenotype (%) is at or above 8%, and fulfilled whenever it is below.

[
  {
    "molecule": "O=C(O)Cc1ccccc1Nc1c(Cl)cccc1Cl [DICLOFENAC]",
    "cat": "fulfilled"
  },
  {
    "molecule": "Cc1ccc(/C(=C\\CN2CCCC2)c2ccccn2)cc1 [TRIPROLIDINE]",
    "cat": "not fulfilled"
  },
  {
    "molecule": "C[C@H](NC(=O)c1c(C(F)F)nn(C)c1Oc1cccc(C(F)(F)F)c1)c1ccc(C(=O)O)cc1 [PALUPIPRANT]",
    "cat": "fulfilled"
  },
  {
    "molecule": "C[C@@H]1C[C@H]2[C@@H]3CCC4=CC(=O)C=C[C@]4(C)[C@@]3(F)[C@@H](O)C[C@]2(C)[C@@]1(O)C(=O)CO [DEXAMETHASONE]",
    "cat": "fulfilled"
  },
  {
    "molecule": "O=C(NCCO)c1cccc(-c2cc(Nc3ccc(OC(F)(F)F)cc3)ncn2)c1",
    "cat": "fulfilled"
  },
  {
    "molecule": "CCNC1(C(N)=O)CCN(c2ncnc3c2nc(-c2ccccc2Cl)n3-c2ccc(Cl)cc2)CC1 [OTENABANT]",
    "cat": "not fulfilled"
  }
]
